TARGET UNDER TEST: T1, Cdc25, P04821
T1 sequence (P04821 50-136, looked up): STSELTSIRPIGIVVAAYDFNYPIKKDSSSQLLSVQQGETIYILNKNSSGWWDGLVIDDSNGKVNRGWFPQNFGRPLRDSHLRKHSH
PROCEDURE SUMMARY: SPOT array
CONDITION SUMMARY: median of control spots 969
QUANTITY KIND: SPOT intensity

{"BINDER": "SNRRPVPRRPSQPLN", "SPOT intensity": 35}
{"BINDER": "NILKRRPLKLEAPSK", "SPOT intensity": 297}

1 = RLSRLLLSLPPESFT
2 = VPKEPAPAPPPEPDM
Query :: Name the one with the greater SPOT intensity value, either 1 or 2 as given. Answer by stating the label of the chosen item.
Result :: 1
(1: 172, 2: 0)
